System: HL-60(TB) leukemia
PROCEDURE DETAILS: NCI-60 one-dose screen, 48 h (100 = growth as untreated, 0 = no growth, -100 = all killed)
STATED CONDITIONS: 10 µM unless noted
The panel holds about 83,000 compounds, 20% with a hit somewhere; the sample as a whole holds those more often. The source made the active and inactive calls. Rule for the calls: active = growth percent below 10; inactive = the rest.
Item-by-item account of growth
MEASURED METRIC: growth

1. CC1(C)CC(=O)C2=C(C1)N(Cc1ccc(C(=O)O)cc1)C1=C(C(=O)CC(C)(C)C1)C2c1ccc(Cl)cc1 = 107% (inactive)
2. Cc1cc2nc3c4ccccc4n(CCCN(C)C)c3nc2cc1C = -40.5% (active)
3. C/C(=C\CSc1ccccc1C(=O)O)CCCC(C)CCCC(C)CCCC(C)C (centres undefined) = 41.2% (inactive)
4. Cc1cc2nc3c4ccccc4n(CC4=NCCN4)c3nc2cc1C = -55.6% (active)
5. COc1ccc(Cc2nn(CC(=O)N/N=C/c3ccc(F)cc3)c(=O)c3c(C)noc23)cc1 = 78.2% (inactive)
6. CC(C)C1=C[C@@]23CC[C@@H]4[C@](C)(CCC[C@]4(C)C(=O)NCc4ccccc4)[C@H]2C[C@@H]1[C@H]1C(=O)CCC(=O)[C@H]13 = 53.5% (inactive)
7. CCCCCCCS(=O)(=O)N1CCCC(C(=O)Nc2nc3ccc(NC(=O)c4ccc(F)c(OC)c4F)cc3s2)C1 (centres undefined) = 66.7% (inactive)
8. C=C1CC[C@@H]2[C@]3(C)COC(c4cn[nH]c4-c4ccccc4)O[C@@H]3CC[C@@]2(C)[C@@H]1C/C=C1/C(=O)OCC1O (some centres undefined) = 8.64% (active)
9. COP(=O)(CC(F)(F)C(F)(F)F)OC = 8.78% (active)
10. O=C1NC(=O)/C(=C/c2ccccc2OCc2cc3ccccc3nc2Cl)S1 = 99% (inactive)
11. COc1ccc(Nc2nc(N)n(Cc3cccc(Br)c3)n2)cc1 = -11.4% (active)
12. O=c1onc(-c2cc3ccccc3nc2Cl)n1-c1cccc2ccccc12 = 33.5% (inactive)
13. COC(=O)c1cc(C(=O)C(Br)Br)n2c1ccc1c3ccccc3ccc12 = 76.2% (inactive)
14. NS(=O)(=O)c1ccc(N=Nc2c(O)n(CC(=O)Nc3ccccc3Br)c3ccccc23)cc1 = 76.6% (inactive)
15. COc1ccc(NC(=O)Nc2ccc(OCc3ccc(F)cc3)cc2)cc1 = 83.1% (inactive)
16. O=C(CSc1nnc(-c2ccc(-c3nc4ccccc4[nH]3)cc2)o1)Nc1ccccc1 = 53.5% (inactive)
17. N#Cc1c(-c2cccnc2)cc(-c2ccc3ccccc3c2)[nH]c1=O = 72.6% (inactive)
18. COc1cc(C2CC(c3ccc(C(F)(F)F)cc3)=Nc3c(N)nc(N)nc3N2)ccc1Oc1nc(Nc2ccc(F)cc2)nc(N(C)C)n1 (centres undefined) = 13.7% (inactive)
19. CN(C(=O)c1ccc(C(F)(F)F)cc1C(F)(F)F)c1sc2c(c1C#N)CCC(=O)C2 = 55.3% (inactive)
